- system: CCR1 (Homo sapiens)
- Construct: purchased Promega (in-house HiBiT-GPCR construct library, NanoBRET)
- Sequence (P32246 whole entry): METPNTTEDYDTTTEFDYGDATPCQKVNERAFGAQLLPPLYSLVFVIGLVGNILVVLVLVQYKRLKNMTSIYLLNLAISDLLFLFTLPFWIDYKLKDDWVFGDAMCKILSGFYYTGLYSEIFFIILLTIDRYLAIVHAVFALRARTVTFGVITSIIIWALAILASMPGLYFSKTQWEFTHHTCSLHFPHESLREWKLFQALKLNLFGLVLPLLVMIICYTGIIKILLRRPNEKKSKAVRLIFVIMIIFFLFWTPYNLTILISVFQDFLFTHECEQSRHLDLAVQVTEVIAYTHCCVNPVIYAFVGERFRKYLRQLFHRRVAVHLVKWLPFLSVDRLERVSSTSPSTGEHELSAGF
- assaySummary: NanoBRET screen HiBiT-CCR1 in HEK293
- Format: binding
- experimentalParameters: CCR1; tracer 0.1μM
Item-by-item account of NanoBRET Fold Response

[Q] Which NanoBRET Fold Response is reported with CCR1 (Homo sapiens) for this entry: Cc1nc2n(c(=O)c1CCN1CCC(c3noc4cc(F)ccc34)CC1)CCCC2OC(=O)NCCOCCOCCOCCOCCNC(=O)CCc1ccc2n1[B-](F)(F)[N+]1=C(c3ccc[nH]3)C=CC1=C2 (stereo not drawn) ?
[A] 1.00

* * *

Overview of reported NanoBRET Fold Response across a group of compounds:
- system: CCR4 (Homo sapiens, UniProt P51679)
- Construct: purchased Promega (in-house HiBiT-GPCR construct library, NanoBRET)
- Sequence (P51679 whole entry): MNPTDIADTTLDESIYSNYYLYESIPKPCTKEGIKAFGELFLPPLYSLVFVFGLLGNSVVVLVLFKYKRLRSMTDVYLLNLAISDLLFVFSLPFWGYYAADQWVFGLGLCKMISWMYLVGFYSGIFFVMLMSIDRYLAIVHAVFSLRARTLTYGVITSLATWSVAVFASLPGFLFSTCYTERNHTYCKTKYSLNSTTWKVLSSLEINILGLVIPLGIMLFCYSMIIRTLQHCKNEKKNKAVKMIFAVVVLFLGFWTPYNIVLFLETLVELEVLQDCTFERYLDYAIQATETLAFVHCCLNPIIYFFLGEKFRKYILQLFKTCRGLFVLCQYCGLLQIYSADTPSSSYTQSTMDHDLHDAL
- assaySummary: NanoBRET screen HiBiT-CCR4 in HEK293
- Type: binding
- experimentalParameters: CCR4; tracer 0.1μM
# output: bare number, no unit

COc1ccccc1N1CCN(CCCCN2C(=O)c3ccc(CNC(=O)CCOCCOCCOCCOCCNC(=O)CCc4ccc5n4[B-](F)(F)[N+]4=C(c6ccc[nH]6)C=CC4=C5)cc3C2=O)CC1 ... 0.98
O=C(CCOCCOCCOCCOCCNC(=O)CCc1ccc2n1[B-](F)(F)[N+]1=C(c3ccc[nH]3)C=CC1=C2)NCCCN1CCN(C2=Nc3ccccc3Oc3ccc(Cl)cc32)CC1 ... 1.03
N#CN=C(NCCCOc1cccc(CN2CCCCC2)c1)NCCNC(=O)CCOCCOCCOCCOCCNC(=O)CCc1ccc2n1[B-](F)(F)[N+]1=C(c3ccc[nH]3)C=CC1=C2 ... 1.09
O=C(CCc1ccc2n1[B-](F)(F)[N+]1=C(c3ccc[nH]3)C=CC1=C2)NCCOCCOCCNC(=O)OCCOCCN1CCN(C2=Nc3ccccc3Sc3ccccc32)CC1 ... 1.02

Would you kindly look at the next entry?
[Q] Endpoint output: NanoBRET Fold Response of Cc1cc2c(s1)Nc1ccccc1N=C2N1CCN(CCCNC(=O)CCOCCOCCOCCOCCNC(=O)CCc2ccc3n2[B-](F)(F)[N+]2=C(c4ccc[nH]4)C=CC2=C3)CC1 . Value?
[A] 1.01

* * *

- system: ADORA3 (Homo sapiens, UniProt P0DMS8)
- Construct: purchased Promega (in-house HiBiT-GPCR construct library, NanoBRET)
- Sequence (P0DMS8 whole entry): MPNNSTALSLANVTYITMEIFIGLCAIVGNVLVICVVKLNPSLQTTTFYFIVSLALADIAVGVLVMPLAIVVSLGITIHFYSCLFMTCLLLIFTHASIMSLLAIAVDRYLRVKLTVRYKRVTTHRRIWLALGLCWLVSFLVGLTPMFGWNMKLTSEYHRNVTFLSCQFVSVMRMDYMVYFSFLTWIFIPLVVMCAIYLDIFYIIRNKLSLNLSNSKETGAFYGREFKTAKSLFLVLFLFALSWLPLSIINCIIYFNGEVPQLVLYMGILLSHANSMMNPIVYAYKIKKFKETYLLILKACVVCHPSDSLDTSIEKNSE
- assaySummary: NanoBRET screen HiBiT-ADORA3 in HEK293
- Format: binding
- experimentalParameters: ADORA3; tracer 1μM
- Protocol: Each tracer candidate was screened across the entire library of HiBiT-GPCR constructs using NanoBRET as the detection modality. As depicted in Figure 4A, the specificity of interactions was evaluated through decrease in BRET due to competitive displacement of a bound tracer by excess parental compound. Each tracer was analyzed for binding to each HiBiT-GPCR fusion in the absence and in the presence of competing parental compound. […]
Short version: NanoBRET Fold Response at least 0.9 is 1, less is 0.

O=C(CCc1ccc2n1[B-](F)(F)[N+]1=C(c3ccc[nH]3)C=CC1=C2)NCc1ccc(C(=O)NCCOCCC(=O)N[C@@H]2CC[C@@]3(O)[C@H]4Cc5ccc(O)c6c5[C@@]3(CCN4CC3CC3)[C@H]2O6)cc1 [Naltrexone-3-NB590] ... 0
Cc1nc2n(c(=O)c1CCN1CCC(c3noc4cc(F)ccc34)CC1)CCCC2OC(=O)NCCOCCOCCOCCOCCNC(=O)CCc1ccc2n1[B-](F)(F)[N+]1=C(c3ccc[nH]3)C=CC1=C2 (centres unmarked) ... 0

[Q] Reported NanoBRET Fold Response reaches at least 0.9 for Cc1cc2c(s1)Nc1ccccc1N=C2N1CCN(CCCNC(=O)CCOCCOCCOCCOCCNC(=O)CCc2ccc3n2[B-](F)(F)[N+]2=C(c4ccc[nH]4)C=CC2=C3)CC1 ?
[A] 1

[Q] Kindly determine if NanoBRET Fold Response recorded for O=C(CCOCCOCCOCCOCCNC(=O)CCc1ccc2n1[B-](F)(F)[N+]1=C(c3ccc[nH]3)C=CC1=C2)NCCCN1CCN(C2=Nc3ccccc3Oc3ccc(Cl)cc32)CC1 is above or exactly 0.9.
[A] 0

* * *

- system: FZD6 (Homo sapiens)
- Construct: purchased Promega (in-house HiBiT-GPCR construct library, NanoBRET)
- Sequence (O60353 19-706): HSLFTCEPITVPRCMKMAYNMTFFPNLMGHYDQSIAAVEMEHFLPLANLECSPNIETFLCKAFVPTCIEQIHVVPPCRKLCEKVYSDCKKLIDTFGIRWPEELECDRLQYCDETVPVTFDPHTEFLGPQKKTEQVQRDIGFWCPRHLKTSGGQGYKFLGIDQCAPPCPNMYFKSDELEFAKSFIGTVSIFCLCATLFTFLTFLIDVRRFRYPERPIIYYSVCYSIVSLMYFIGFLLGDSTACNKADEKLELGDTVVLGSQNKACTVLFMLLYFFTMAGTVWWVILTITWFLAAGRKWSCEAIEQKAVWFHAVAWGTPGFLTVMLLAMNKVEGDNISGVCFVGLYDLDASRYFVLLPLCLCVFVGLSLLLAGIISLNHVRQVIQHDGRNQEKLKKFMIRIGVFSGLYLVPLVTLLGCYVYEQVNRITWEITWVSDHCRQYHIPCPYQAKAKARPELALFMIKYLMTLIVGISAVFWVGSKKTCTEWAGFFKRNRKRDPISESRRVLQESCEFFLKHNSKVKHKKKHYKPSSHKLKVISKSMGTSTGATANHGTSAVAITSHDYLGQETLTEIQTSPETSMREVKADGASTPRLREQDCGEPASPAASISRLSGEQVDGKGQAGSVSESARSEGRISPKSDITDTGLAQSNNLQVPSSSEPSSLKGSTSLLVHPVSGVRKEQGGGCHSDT
- assaySummary: NanoBRET screen HiBiT-FZD6 in HEK293
- Type: binding
- experimentalParameters: FZD6; tracer 1μM
Reported NanoBRET Fold Response is given for each of the following molecules.
Number only, no unit.

Example cases with answers are listed next.
O=C(CCc1ccc2n1[B-](F)(F)[N+]1=C(c3ccc[nH]3)C=CC1=C2)NCc1ccc(C(=O)NCCOCCC(=O)N[C@@H]2CC[C@@]3(O)[C@H]4Cc5ccc(O)c6c5[C@@]3(CCN4CC3CC3)[C@H]2O6)cc1 [Naltrexone-3-NB590] ... 1.10
N#CN=C(NCCCOc1cccc(CN2CCCCC2)c1)NCCNC(=O)CCOCCOCCOCCOCCNC(=O)CCc1ccc2n1[B-](F)(F)[N+]1=C(c3ccc[nH]3)C=CC1=C2 ... 1.03
O=C(CCc1ccc2n1[B-](F)(F)[N+]1=C(c3ccc[nH]3)C=CC1=C2)NCCOCCOCCNC(=O)OCCOCCN1CCN(C2=Nc3ccccc3Sc3ccccc32)CC1 ... 1.15
COc1ccccc1N1CCN(CCCCN2C(=O)c3ccc(CNC(=O)CCOCCOCCOCCOCCNC(=O)CCc4ccc5n4[B-](F)(F)[N+]4=C(c6ccc[nH]6)C=CC4=C5)cc3C2=O)CC1 ... 1.04
Cc1cc2c(s1)Nc1ccccc1N=C2N1CCN(CCCNC(=O)CCOCCOCCOCCOCCNC(=O)CCc2ccc3n2[B-](F)(F)[N+]2=C(c4ccc[nH]4)C=CC2=C3)CC1 ... 0.98
CC(C)N(CC[C@H](c1ccccc1)c1cc(CCNC(=O)CCOCCOCCOCCOCCNC(=O)CCc2ccc3n2[B-](F)(F)[N+]2=C(c4ccc[nH]4)C=CC2=C3)ccc1O)C(C)C ... 0.88
O=C(CCOCCOCCOCCOCCNC(=O)CCc1ccc2n1[B-](F)(F)[N+]1=C(c3ccc[nH]3)C=CC1=C2)NCCCN1CCN(C2=Nc3ccccc3Oc3ccc(Cl)cc32)CC1 ... 1.06
Cc1nc2n(c(=O)c1CCN1CCC(c3noc4cc(F)ccc34)CC1)CCCC2OC(=O)NCCOCCOCCOCCOCCNC(=O)CCc1ccc2n1[B-](F)(F)[N+]1=C(c3ccc[nH]3)C=CC1=C2 (centres unmarked) ... 1.10

[Q] Bench note: what NanoBRET Fold Response did COc1ccccc1N1CCN(CCCCN2C(=O)c3ccc(CNC(=O)CCOCCNC(=O)c4ccc(CNC(=O)CCc5ccc6n5[B-](F)(F)[N+]5=C(c7ccc[nH]7)C=CC5=C6)cc4)cc3C2=O)CC1 show?
[A] 1.13

[Q] Record request: NanoBRET Fold Response value, item CCCn1c(=O)c2[nH]c(-c3ccc(OCC(=O)NCCNC(=O)CCOCCNC(=O)c4ccc(CNC(=O)CCc5ccc6n5[B-](F)(F)[N+]5=C(c7ccc[nH]7)C=CC5=C6)cc4)cc3)nc2n(CCC)c1=O
[A] 1.05

[Q] Consider the molecule CC(C)N(CC[C@H](c1ccccc1)c1cc(CCNC(=O)c2ccc(CNC(=O)CCc3ccc4n3[B-](F)(F)[N+]3=C(c5ccc[nH]5)C=CC3=C4)cc2)ccc1O)C(C)C and give its measured NanoBRET Fold Response.
[A] 1.04

* * *

- system: GRPR (Homo sapiens)
- Construct: purchased Promega (in-house HiBiT-GPCR construct library, NanoBRET)
- Sequence (P30550 whole entry): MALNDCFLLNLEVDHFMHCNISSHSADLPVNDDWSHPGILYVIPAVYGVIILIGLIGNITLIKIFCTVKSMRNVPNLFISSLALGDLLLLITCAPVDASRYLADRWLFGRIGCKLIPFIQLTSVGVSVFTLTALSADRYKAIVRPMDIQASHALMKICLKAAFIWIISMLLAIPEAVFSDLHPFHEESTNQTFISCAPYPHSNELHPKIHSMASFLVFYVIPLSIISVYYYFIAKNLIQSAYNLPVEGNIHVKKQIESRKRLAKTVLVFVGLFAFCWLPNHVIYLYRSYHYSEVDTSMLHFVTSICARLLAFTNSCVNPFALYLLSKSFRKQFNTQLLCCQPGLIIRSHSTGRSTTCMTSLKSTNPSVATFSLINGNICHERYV
- assaySummary: NanoBRET screen HiBiT-GRPR in HEK293
- Type: binding
- experimentalParameters: GRPR; tracer 0.1μM
resultType: NanoBRET Fold Response
Lab note: write the figure by itself, no unit.

COc1ccccc1N1CCN(CCCCN2C(=O)c3ccc(CNC(=O)CCOCCOCCOCCOCCNC(=O)CCc4ccc5n4[B-](F)(F)[N+]4=C(c6ccc[nH]6)C=CC4=C5)cc3C2=O)CC1 ... 0.99
CCCn1c(=O)c2[nH]c(-c3ccc(OCC(=O)NCCNC(=O)CCOCCNC(=O)c4ccc(CNC(=O)CCc5ccc6n5[B-](F)(F)[N+]5=C(c7ccc[nH]7)C=CC5=C6)cc4)cc3)nc2n(CCC)c1=O ... 1.24
Cc1nc2n(c(=O)c1CCN1CCC(c3noc4cc(F)ccc34)CC1)CCCC2OC(=O)NCCOCCOCCOCCOCCNC(=O)CCc1ccc2n1[B-](F)(F)[N+]1=C(c3ccc[nH]3)C=CC1=C2 (centres unmarked) ... 0.96
CC(C)N(CC[C@H](c1ccccc1)c1cc(CCNC(=O)CCOCCOCCOCCOCCNC(=O)CCc2ccc3n2[B-](F)(F)[N+]2=C(c4ccc[nH]4)C=CC2=C3)ccc1O)C(C)C ... 0.89

[Q] Entry Cc1cc2c(s1)Nc1ccccc1N=C2N1CCN(CCCNC(=O)CCOCCOCCOCCOCCNC(=O)CCc2ccc3n2[B-](F)(F)[N+]2=C(c4ccc[nH]4)C=CC2=C3)CC1 : reported NanoBRET Fold Response = ?
[A] 0.95

Reference source: paper PMC8151276
